# EXPERIMENTAL_PROTOCOL: in vivo
# COND: rat, plasma, po, 10 mg/kg
READOUT_NAME: Cmax (nM)

[[record]]
compound = "Cc1cnc(COC(=O)NC(C(=O)N[C@@H](Cc2ccccc2)C[C@H](O)[C@H](Cc2ccccc2)NC(=O)OCc2cccnc2)C(C)C)cn1 (stereo partly specified)"
readout_name = "Cmax"
measured = 860

[[record]]
compound = "CC(C)c1cccc(COC(=O)NC(C(=O)N[C@@H](Cc2ccccc2)C[C@H](O)[C@H](Cc2ccccc2)NC(=O)OCc2cccnc2)C(C)C)n1 (stereo partly specified)"
readout_name = "Cmax"
measured = 200

[[record]]
compound = "CC(C)c1nc(CCC(=O)NC(C(=O)N[C@@H](Cc2ccccc2)[C@@H](O)C[C@H](Cc2ccccc2)NC(=O)OCc2cccnc2)C(C)C)cs1 (stereo partly specified)"
readout_name = "Cmax"
measured = 320


(P) COc1ccc(CN(C)C(=O)NC(C(=O)N[C@@H](Cc2ccccc2)[C@@H](O)C[C@H](Cc2ccccc2)NC(=O)OCc2cccnc2)C(C)C)cn1 (stereo partly specified)
(Q) Cc1ccc(COC(=O)NC(C(=O)N[C@@H](Cc2ccccc2)C[C@H](O)[C@H](Cc2ccccc2)NC(=O)OCc2cccnc2)C(C)C)cn1 (stereo partly specified)
For the two items P and Q , which reports the higher Cmax value? Refer to your chosen entry by its label in the reply. P
